# credit: the supplement of paper PMC6555819

Measured PBM binding z-score, listed per entry for reference.
System: PPARg:RXRa (NR concentration 180 nM, RXRa partner concentration 90 nM)
Assay: PBM binding z-score (relative to random genomic background probes); higher = stronger binding; sequences stand for … in GC…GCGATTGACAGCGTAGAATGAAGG

[
  {
    "macromolecule-sequence": "TCCAGTTGGTCACGGAGGTCACACACGACGGGTA",
    "tgt": "PPARg:RXRa (NR concentration 180 nM, RXRa partner concentration 90 nM)",
    "PBM binding z-score": 3.15
  },
  {
    "macromolecule-sequence": "ATCGAAAGGTCGACGAAGTGAGTATACACCGTTT",
    "tgt": "PPARg:RXRa (NR concentration 180 nM, RXRa partner concentration 90 nM)",
    "PBM binding z-score": 2.23
  },
  {
    "macromolecule-sequence": "CCTAGTTGGTGAGGAGGTCACACACCGGATATGA",
    "tgt": "PPARg:RXRa (NR concentration 180 nM, RXRa partner concentration 90 nM)",
    "PBM binding z-score": 2.06
  },
  {
    "macromolecule-sequence": "ATCTCTGGGTAAAAGTTCAGTGAATCCCGAGGAT",
    "tgt": "PPARg:RXRa (NR concentration 180 nM, RXRa partner concentration 90 nM)",
    "PBM binding z-score": 7.38
  },
  {
    "macromolecule-sequence": "GCTATGAGTTGAAAGGGCAACCGAATGATTCTCG",
    "tgt": "PPARg:RXRa (NR concentration 180 nM, RXRa partner concentration 90 nM)",
    "PBM binding z-score": 2.75
  },
  {
    "macromolecule-sequence": "AGTCAAATTTCAGGACGAGGTAACGTAAAGCACG",
    "tgt": "PPARg:RXRa (NR concentration 180 nM, RXRa partner concentration 90 nM)",
    "PBM binding z-score": 0.688
  },
  {
    "macromolecule-sequence": "GCTATTAGTTGAAAAGGCAACCGAATGATTCTCG",
    "tgt": "PPARg:RXRa (NR concentration 180 nM, RXRa partner concentration 90 nM)",
    "PBM binding z-score": 0.532
  },
  {
    "macromolecule-sequence": "GCTATTAGTTGAAAGCGCAACCGAATGATTCTCG",
    "tgt": "PPARg:RXRa (NR concentration 180 nM, RXRa partner concentration 90 nM)",
    "PBM binding z-score": 0.157
  },
  {
    "macromolecule-sequence": "CCAGACAGGTGAGAAGGTTACTCAGCCTCGATTA",
    "tgt": "PPARg:RXRa (NR concentration 180 nM, RXRa partner concentration 90 nM)",
    "PBM binding z-score": 0.536
  },
  {
    "macromolecule-sequence": "ACTCGCAGGCCAAGTTTGGGTCACTCAAACAAAG",
    "tgt": "PPARg:RXRa (NR concentration 180 nM, RXRa partner concentration 90 nM)",
    "PBM binding z-score": -0.313
  },
  {
    "macromolecule-sequence": "AGAATGAGGTTAAGATCAGGAAAACAGAATACAT",
    "tgt": "PPARg:RXRa (NR concentration 180 nM, RXRa partner concentration 90 nM)",
    "PBM binding z-score": 2.48
  },
  {
    "macromolecule-sequence": "TCATATAGGTAAAGAGGTGAAAGTCCGTAAGTTA",
    "tgt": "PPARg:RXRa (NR concentration 180 nM, RXRa partner concentration 90 nM)",
    "PBM binding z-score": 4.38
  }
]

---

Tested on: PPARg:RXRa IVT, anti-PPARg (NR concentration 270 nM, RXRa partner concentration 90 nM)
Assay: PBM binding z-score (relative to random genomic background probes); higher = stronger binding; sequences stand for … in GC…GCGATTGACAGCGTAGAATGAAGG
reported-endpoint: PBM binding z-score

[
  {
    "macromolecule-sequence": "ACTACAGGGTCACTAGGCCAGAGTAGGTACGAAT",
    "reported-endpoint": "PBM binding z-score",
    "result": 5.46
  },
  {
    "macromolecule-sequence": "GCATATAGGTAATACAAGGTGCAAGTCCGATTGT",
    "reported-endpoint": "PBM binding z-score",
    "result": 2.81
  },
  {
    "macromolecule-sequence": "GGAACGAGGGCATTCGAGTAGATAGCATGGCGAT",
    "reported-endpoint": "PBM binding z-score",
    "result": 2.05
  },
  {
    "macromolecule-sequence": "GATACAGGGTCTAGGCCAGAGTACGCGTATTGAT",
    "reported-endpoint": "PBM binding z-score",
    "result": 0.257
  },
  {
    "macromolecule-sequence": "ATCTCTAGGTAACAAGTTCCGTGAAAGAGAGGAC",
    "reported-endpoint": "PBM binding z-score",
    "result": 2.66
  },
  {
    "macromolecule-sequence": "GCTATTAGTTGAAAGGGCAACAGAATGATTCTCG",
    "reported-endpoint": "PBM binding z-score",
    "result": 1.11
  },
  {
    "macromolecule-sequence": "GGAACGAGGGCAAAGTTGATTGCATCTGTCGACG",
    "reported-endpoint": "PBM binding z-score",
    "result": 4.05
  },
  {
    "macromolecule-sequence": "CAAACTATGTCAAGAGGTCAAAGTCCGCTTCCCG",
    "reported-endpoint": "PBM binding z-score",
    "result": 4.88
  },
  {
    "macromolecule-sequence": "GCTTCTAGATCAAGGTTAAGAAAGACTAAGCTAA",
    "reported-endpoint": "PBM binding z-score",
    "result": 0.862
  },
  {
    "macromolecule-sequence": "TCATATAGCTAAAGGTGAAAGTCGAACGATATGA",
    "reported-endpoint": "PBM binding z-score",
    "result": 1.41
  },
  {
    "macromolecule-sequence": "ACATACAGGTGAGTGAAGGTAACTCAGCTGGACG",
    "reported-endpoint": "PBM binding z-score",
    "result": 2.03
  },
  {
    "macromolecule-sequence": "AGAATGAGGTTATACGTAGCTCAGGGAAGAAAGT",
    "reported-endpoint": "PBM binding z-score",
    "result": 1.8
  },
  {
    "macromolecule-sequence": "GGAACGACGGCATTCGAGTTGATAGCATGGCGAT",
    "reported-endpoint": "PBM binding z-score",
    "result": -0.897
  },
  {
    "macromolecule-sequence": "GGAACGAGGGCATTCGAGTTGATAGCTTGGCGAT",
    "reported-endpoint": "PBM binding z-score",
    "result": 2.2
  },
  {
    "macromolecule-sequence": "TTTATTAGTTGAAGGGCAACCGACGAGTCCGTTT",
    "reported-endpoint": "PBM binding z-score",
    "result": 0.967
  },
  {
    "macromolecule-sequence": "AGTCAAAGTTCATCTAGGTAAAGTAAGATATGCT",
    "reported-endpoint": "PBM binding z-score",
    "result": 3.88
  },
  {
    "macromolecule-sequence": "AGTCAAAGTTCACTAGGTAACGTCAGATTCAGCT",
    "reported-endpoint": "PBM binding z-score",
    "result": 4.95
  },
  {
    "macromolecule-sequence": "ACTATTAGTTGACTTAAGGCAACCGATACGACGC",
    "reported-endpoint": "PBM binding z-score",
    "result": 0.392
  },
  {
    "macromolecule-sequence": "TCTTGTAGATCAAGCAGGTTACGAAAGCCTGAGT",
    "reported-endpoint": "PBM binding z-score",
    "result": 1.04
  },
  {
    "macromolecule-sequence": "TCTGCTAGGTCAGTTGGCCAGCTAACGAGCTGCC",
    "reported-endpoint": "PBM binding z-score",
    "result": 2.82
  },
  {
    "macromolecule-sequence": "CGCACTAGGTCAGAACAGGACAGTGAAGGATGAT",
    "reported-endpoint": "PBM binding z-score",
    "result": 7.1
  },
  {
    "macromolecule-sequence": "TCTACCAGGCCAGAGGGTCACTCAAGAGGTACGG",
    "reported-endpoint": "PBM binding z-score",
    "result": 1.75
  },
  {
    "macromolecule-sequence": "CGTCAAAGTTCAACTAAGGGAACGTAAAGCACGC",
    "reported-endpoint": "PBM binding z-score",
    "result": 1.71
  },
  {
    "macromolecule-sequence": "TGTCAAAGATCAAAGGTAACGTAAGTATCCACAC",
    "reported-endpoint": "PBM binding z-score",
    "result": 2.24
  },
  {
    "macromolecule-sequence": "TCTTGTAGATCAATATAGGTTAAGAAAGTGCGCT",
    "reported-endpoint": "PBM binding z-score",
    "result": 2.98
  },
  {
    "macromolecule-sequence": "CCTAGTTGGTCAAGGTGACACACGCTATAGGTAC",
    "reported-endpoint": "PBM binding z-score",
    "result": 3.11
  }
]
